test system: U-251; test: NCI tumour cell line growth inhibition, 48 h
Active and inactive are the calls of the source. Cut-off read from the data, not from the text of the source: active = GI50 up to about 1.1 µM and inactive = higher.
Listing: GI50 of selected compounds
measurementKind: GI50

{"compound": "O=C1/C(=C/c2ccccc2)N=C(c2ccccc2)N1n1c(-c2ccccc2)nc2ccccc2c1=O", "result": "41.8 µM (inactive)"}
{"compound": "O=C(CCc1ccc(O)cc1)NCCc1ccc(O)cc1", "result": "> 100 µM (inactive)"}
{"compound": "COc1cc2c(cc1OC)C(=O)/C(=C/c1ccccc1)C2", "result": "> 100 µM (inactive)"}
{"compound": "CC(=O)NNc1nc(C)c(C(=O)/C=C/c2ccc(NC(C)=O)cc2)s1", "result": "> 100 µM (inactive)"}
{"compound": "COCCNC(=O)C1C(=O)C(=O)N(CCOC)C1=O (stereo not given)", "result": "> 100 µM (inactive)"}
{"compound": "CCOC(=O)CNc1nc(=O)c2c(=O)oc(Cl)cc2o1", "result": "24.8 µM (inactive)"}
{"compound": "CC1(C)[C@H]2CC[C@]1(C)[C@H](OC(=O)NNC(=O)O[C@@H]1C[C@@H]3CC[C@@]1(C)C3(C)C)C2", "result": "16 µM (inactive)"}
{"compound": "C[C@]12CCC3[C@@H](CC[C@@H]4c5nonc5CC[C@]34C)C1CC[C@@H]2O (stereo not given in full)", "result": "19.9 µM (inactive)"}
{"compound": "OC(c1ccccc1)(c1ccccc1)c1ccncc1", "result": "> 100 µM (inactive)"}
{"compound": "COc1ccccc1NC(=O)/C(Cc1nc2ccc([N+](=O)[O-])cc2nc1O)=N\\NC(=O)C[N+](C)(C)C", "result": "> 100 µM (inactive)"}
